# system.under.test: CIB1 and αIIb interaction (CIB1-GST : F-αIIb peptide) (Homo sapiens, UniProt Q99828)
# Construct: made in house; host or cells: BL-21 plus RIL cells (E. coli)
# Sequence (Q99828 1-191): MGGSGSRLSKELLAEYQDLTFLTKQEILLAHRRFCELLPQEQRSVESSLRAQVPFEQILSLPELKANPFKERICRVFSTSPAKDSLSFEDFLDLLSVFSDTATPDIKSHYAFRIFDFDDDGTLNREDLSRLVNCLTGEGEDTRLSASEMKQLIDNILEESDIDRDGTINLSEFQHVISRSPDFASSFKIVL
# assay.summary: FP assay, 1536-well qHTS format (primary and confirmatory screen)
# Type: binding
# test.conditions: confirmatory screen
hey, just use 1 if measured Efficacy (%) (confirmatory screen) is less than -80%, otherwise -1

Cc1ccccc1C(=O)N1CCc2cc(-c3nc(NC(=O)Cc4ccc(OCCOCCOCCN)cc4)sc3C)ccc21.O=C(O)C(F)(F)F [NCGC00351618-01] : -1
O=C(O)C(F)(F)F.c1ccc(-n2ccc(-c3nnc4n3CCCCC4)c2)cc1 [NCGC00249645-01] : 1
O=c1cc(-c2ccccc2)oc2cc(O)c(O)c(O)c12 [NCGC00017236-08] : 1
CC1=NN(c2ccc(C)c(C)c2)C(=O)/C1=N/Nc1cccc(-c2cccc(C(=O)O)c2)c1O [NCGC00274067-01] : 1
Nc1ccc(CNc2ccc(S(=O)(=O)Nc3nccs3)cc2)c(O)c1.O=C(O)C(F)(F)F [NCGC00273962-01] : -1
NC(=O)c1ccc(Cc2c(-c3cccc(-c4ccccc4)c3)nn(-c3nc(C(=O)O)cs3)c2O)cc1.O=C(O)C(F)(F)F [NCGC00356638-01] : 1
FC(F)(F)c1cccc(N2CCN(C(=S)Nc3nccc4cccnc34)CC2)c1.O=C(O)C(F)(F)F [NCGC00244201-01] : 1

These measurements were taken from paper PMC11249646.
